- Tested on: SF-268 CNS
- TEST DETAILS: NCI tumour cell line growth inhibition, 48 h
EXPERIMENTAL READOUT: GI50

Looking for the measured GI50 of `N#C/C(=C\c1ccc[nH]1)c1cc(-c2ccc(Cl)cc2)nn1-c1ccccc1` , can you help?
4050 nM

Looking for the measured GI50 of CC1=CC2(C)/C=C(C)/C=C\CC(O)/C=C3/C=CC(=C4C(=O)OC2(CC1C)C4=O)OC3 (stereo not drawn) , can you help?
2090 nM

Looking for the measured GI50 of CN1C(=O)N(C)C2C1NC(=S)N2/N=C/C=C/c1ccccc1[N+](=O)[O-] (stereo not drawn) , can you help?
2670 nM

###

- Tested on: SK-OV-3 ovarian
- TEST DETAILS: NCI tumour cell line growth inhibition, 48 h; in the data active means GI50 below about 0.43 µM; inactive means the rest
Give one outcome, nothing more. List: YES (active), NO (inactive)

Hi, do you know how `CCCCCCC(=O)NC1=C(N2CC2)C(=O)C(NC(=O)CCCCCC)=C(N2CC2)C1=O` came out in this test?
NO

Hi, do you know how `COc1cc2ncnc(Oc3ccc(NC(=O)Nc4ccc(CN5CCOCC5)c(C(F)(F)F)c4)c4ccccc34)c2cc1OC` came out in this test?
YES

Hi, do you know how `Cc1nnc(N/N=C/c2ccc([N+](=O)[O-])o2)[nH]c1=O` came out in this test?
NO

Hi, do you know how `NS(=O)(=O)c1ccc(-n2nc3c(c2-c2cccs2)Cc2ccccc2-3)cc1` came out in this test?
NO

###

Kindly state TGI for each of the entries shown.
- Tested on: A549 NSCLC
- TEST DETAILS: NCI tumour cell line growth inhibition, 48 h

Looking for the measured TGI of `Nc1nc(-c2ccc3c(c2)/C(=C\c2cc(Br)c(O)c(Br)c2)C(=O)N3)cs1` , can you help?
> 25 µM

Looking for the measured TGI of `COc1cc2c3c(n(C)c(=O)c2cc1OC)-c1cc2c(cc1/C3=C\CCCCl)OCO2` , can you help?
> 100 µM

Looking for the measured TGI of CCOC(=O)c1ccc2nc3n(c2c1)C(c1c(F)cccc1F)SC3 (stereo not drawn) , can you help?
> 100 µM

Looking for the measured TGI of `O=C(Nc1ccc(Br)c2ccccc12)c1ccc2ccccc2c1O` , can you help?
11 µM

Looking for the measured TGI of COc1cc2[nH]c3c(c2cc1OC)CCN[C@@]31CC[C@@]2(CC3c4c(cc(OC)c(O)c42)CCN3C)C[C@@H]1OC (stereo partly drawn) , can you help?
> 100 µM

Looking for the measured TGI of `Cc1cc(OCc2ccc(C(F)(F)F)cc2)c2c(c1)C(=O)C=C(NCCN1CCCC1)C2=O` , can you help?
9.68 µM

Looking for the measured TGI of `NS(=O)(=O)c1nnc(NS(=O)(=O)c2cccc3cccnc23)s1` , can you help?
> 100 µM

Looking for the measured TGI of `COc1ccc(N=NC2=C(O)CCC2=O)cc1` , can you help?
> 100 µM

Looking for the measured TGI of COC(=O)/C=C1\C(CO[Si](C)(C)C(C)(C)C)OC(n2cc(C)c(=O)n(C)c2=O)C1O[Si](C)(C)C(C)(C)C (stereo not drawn) , can you help?
> 100 µM

Looking for the measured TGI of C=CC1=C(C)C(/C=c2\[nH]/c(=C/c3[nH]c(CC4NC(=O)C(C)/C4=C\C)c(C)c3CCC(=O)O)c(CC(=O)O)c2C)=NC1=O (stereo not drawn) , can you help?
> 100 µM

Looking for the measured TGI of CC(NNC(=S)N1CCN(c2ccccn2)CC1)c1nccc2ccccc12 (stereo not drawn) , can you help?
13.2 µM

Looking for the measured TGI of O=C1OC(OC/C(Br)=C(\Br)COC2OC(=O)C(Cl)=C2Cl)C(Cl)=C1Cl (stereo not drawn) , can you help?
34.3 µM

Looking for the measured TGI of CCCCCCCCCC1CC(=O)OC2=C1C(=O)CCC2 (stereo not drawn) , can you help?
> 100 µM

Looking for the measured TGI of `Nc1ccc(C#Cc2ccccc2C#CCCCCO)cc1` , can you help?
28.7 µM

Looking for the measured TGI of `CCN1CCN(c2ccc(NC(=O)Nc3nc4ccc(-c5ccccc5OC)cc4s3)cc2)CC1` , can you help?
3.59 µM

Looking for the measured TGI of `Cc1[nH]nc(C(F)(F)F)c1Cc1sc2c(c1C(=O)N1C[C@](C)(O)CO1)c(=O)n(C)c(=O)n2C(C)C` , can you help?
> 100 µM

Looking for the measured TGI of `NC1(c2cc3ccccc3s2)CCCCCC1` , can you help?
34.2 µM

Looking for the measured TGI of `[N-]=[N+]=C(C(=O)CN1CCCC1=O)S(=O)(=O)c1ccccc1` , can you help?
> 100 µM
